measured on: GRK2 (Homo sapiens)
Sequence (P25098 whole entry): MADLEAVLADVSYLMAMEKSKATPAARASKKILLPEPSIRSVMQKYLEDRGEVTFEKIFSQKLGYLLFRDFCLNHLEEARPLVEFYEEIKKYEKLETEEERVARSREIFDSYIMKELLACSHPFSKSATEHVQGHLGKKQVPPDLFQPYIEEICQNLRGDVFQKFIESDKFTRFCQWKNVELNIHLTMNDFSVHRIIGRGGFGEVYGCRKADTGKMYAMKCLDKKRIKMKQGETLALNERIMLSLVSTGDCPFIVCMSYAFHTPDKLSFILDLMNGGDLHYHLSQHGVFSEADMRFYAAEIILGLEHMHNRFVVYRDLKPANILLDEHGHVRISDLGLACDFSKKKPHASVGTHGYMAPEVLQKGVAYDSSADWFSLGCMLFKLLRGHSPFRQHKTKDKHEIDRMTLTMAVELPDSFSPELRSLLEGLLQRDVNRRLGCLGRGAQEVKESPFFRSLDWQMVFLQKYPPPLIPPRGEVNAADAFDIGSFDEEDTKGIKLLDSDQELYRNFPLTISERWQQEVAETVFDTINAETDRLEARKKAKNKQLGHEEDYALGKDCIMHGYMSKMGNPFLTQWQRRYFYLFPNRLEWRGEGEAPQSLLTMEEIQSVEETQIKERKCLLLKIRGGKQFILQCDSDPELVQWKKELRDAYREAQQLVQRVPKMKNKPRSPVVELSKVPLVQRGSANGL
test details: GRK2 Degradation Assay and Western Blot in PAXF1657 cells
Format: cell-based
Design: endogenous in cells; host or cells: PAXF1657
recorded conditions: 0.3 uM, PAXF1657 EV, 24 hrs; read-out: % GRK2 degradation at 0.3 uM in PAXF1657 EV (24 hrs)
property measured: inhibition at 0.3 µM (%)
Give bare numbers, in %.

Cc1ncsc1-c1ccc(CNC(=O)[C@@H]2C[C@@H](O)CN2C(=O)[C@@H](NC(=O)CCCc2cn(CCCCCOc3cccc(CNC(=O)c4cccc(NCc5nnc(-c6ccncn6)n5C)c4)c3)nn2)C(C)(C)C)cc1 | -3
Cc1ncsc1-c1ccc(CNC(=O)[C@@H]2C[C@@H](O)CN2C(=O)[C@@H](NC(=O)CCCc2cn(CCCCCCCOc3cccc(CNC(=O)c4cccc(NCc5nnc(-c6ccncn6)n5C)c4)c3)nn2)C(C)(C)C)cc1 | 2
Cc1ncsc1-c1ccc(CNC(=O)[C@@H]2C[C@@H](O)CN2C(=O)[C@@H](NC(=O)CCCOCCOCCOCCCCCCOc2cccc(CNC(=O)c3cccc(NCc4nnc(-c5ccncn5)n4C)c3)c2)C(C)(C)C)cc1 | -4

Ask | Can you look up the measured inhibition at 0.3 µM of `Cc1ncsc1-c1ccc(CNC(=O)[C@@H]2C[C@@H](O)CN2C(=O)[C@@H](NC(=O)CCCCCOCCOCCOCCCCCCOc2cccc([C@H](C)NC(=O)c3cccc(NCc4nnc(-c5ccncn5)n4C)c3)c2)C(C)(C)C)cc1` for me?
Reply | -12
